- measurement.notes: Therapeutic index, ratio of CC50 for cytotoxicity against human A549 cells overexpressing ACE2 and TMPRSS2 to EC50 for antiviral activity against SARS-CoV-2 infected in human A549 cells overexpressing ACE2 and TMPRSS2 assessed as reduction in viral growth
- Format: toxicity, cell-based
- condition.summary: read-out: Ratio CC50/EC50
observable: selectivity ratio

- item.smiles: "Nc1ncnn2c([C@@H]3O[C@H](CNS(=O)(=O)c4ccc5ccccc5c4)[C@@H](O)[C@H]3O)ccc12"
  recorded.result: "> 139"
